study.target: Vitamin D3 receptor (Homo sapiens, UniProt P11473)
Sequence (P11473 whole entry): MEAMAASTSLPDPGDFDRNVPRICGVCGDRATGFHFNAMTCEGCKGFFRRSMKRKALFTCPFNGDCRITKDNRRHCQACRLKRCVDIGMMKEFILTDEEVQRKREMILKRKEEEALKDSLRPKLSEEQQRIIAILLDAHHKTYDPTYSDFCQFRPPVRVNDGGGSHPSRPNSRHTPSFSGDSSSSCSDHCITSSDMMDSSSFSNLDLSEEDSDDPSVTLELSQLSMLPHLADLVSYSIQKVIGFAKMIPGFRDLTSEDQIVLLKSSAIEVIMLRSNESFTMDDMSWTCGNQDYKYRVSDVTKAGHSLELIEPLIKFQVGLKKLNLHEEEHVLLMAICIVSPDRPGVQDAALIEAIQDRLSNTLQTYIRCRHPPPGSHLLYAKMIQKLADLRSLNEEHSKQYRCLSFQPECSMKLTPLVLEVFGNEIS
method.description: Antagonist activity at VDR-LBD (unknown origin) assessed as inhibition of LG190178-induced recruitment of alexa fluor 647-labeled SRC2-3 after 30 mins by fluorescence polarization assay
measured.parameter: IC50

Solved entries (count: 6):
# mol.smiles, IC50
records = [
    ("COc1cccc(-c2nc(C)c(COc3ccc(C(=O)O)cc3)o2)c1", "Not Active"),
    ("COc1ccccc1-c1nc(C)c(COc2ccc(C(=O)O)cc2)o1", "Not Active"),
    ("COc1cccc(-c2nc(C)c(COc3ccc(CC(=O)O)cc3)o2)c1", "Not Active"),
    ("COC(=O)c1ccc(OCc2oc(-c3cccc(OC)c3)nc2C)cc1", "Not Active"),
    ("COc1cccc(-c2nc(C)c(COc3ccccc3C(=O)O)o2)c1", "Not Active"),
    ("COC(=O)c1ccccc1OCc1oc(-c2ccccc2OC)nc1C", "Not Active"),
]

// recorded IC50 for "COC(=O)c1cccc(OCc2oc(-c3cccc(OC)c3)nc2C)c1" : Not Active

// recorded IC50 for "COC(=O)Cc1ccc(OCc2oc(-c3cccc(OC)c3)nc2C)cc1" : Not Active

// recorded IC50 for "COC(=O)c1ccc(OCc2oc(-c3ccccc3OC)nc2C)cc1" : Not Active

// recorded IC50 for "COC(=O)CCc1ccc(OCc2oc(-c3cccc(OC)c3)nc2C)cc1" : Not Active

// recorded IC50 for "COC(=O)c1ccccc1OCc1oc(-c2cccc(OC)c2)nc1C" : Not Active

###

study.target: Peroxisome proliferator-activated receptor delta (Homo sapiens)
Sequence (Q03181 whole entry, the tested form may be a part): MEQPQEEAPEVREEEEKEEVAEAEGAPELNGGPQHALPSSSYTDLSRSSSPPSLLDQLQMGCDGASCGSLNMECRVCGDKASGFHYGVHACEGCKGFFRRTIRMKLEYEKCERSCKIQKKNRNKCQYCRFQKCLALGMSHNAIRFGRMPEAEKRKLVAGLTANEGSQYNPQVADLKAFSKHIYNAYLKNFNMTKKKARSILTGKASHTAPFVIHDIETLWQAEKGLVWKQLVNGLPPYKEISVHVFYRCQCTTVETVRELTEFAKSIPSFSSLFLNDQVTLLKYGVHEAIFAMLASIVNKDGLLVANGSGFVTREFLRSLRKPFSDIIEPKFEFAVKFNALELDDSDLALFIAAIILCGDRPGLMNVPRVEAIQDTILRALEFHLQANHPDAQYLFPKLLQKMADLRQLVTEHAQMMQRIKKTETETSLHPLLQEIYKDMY
method.description: Transactivation of CMV-fused PPARdelta-LBD-GAL4-DBD (unknown origin) expressed in HEK293T cells by luciferase reporter gene assay
Type: cell-based
condition.context: read-out: EC50
pEC50: −log10 of the molar value.
measured.parameter: pEC50

Solved entries (count: 6):
# mol.smiles, measured.parameter, reported.measurement
rows = [
    ("COc1ccccc1-c1nc(C)c(COc2cccc(C(=O)O)c2)o1", "pEC50", 6.06),
    ("COC(=O)CCc1ccc(OCc2oc(-c3cccc(OC)c3)nc2C)cc1", "pEC50", 5.96),
    ("COc1ccccc1-c1nc(C)c(COc2ccc(C(=O)O)cc2)o1", "pEC50", 5.06),
    ("COc1ccccc1-c1nc(C)c(COc2ccc(CC(=O)O)cc2)o1", "pEC50", 4.96),
    ("COc1cccc(-c2nc(C)c(COc3ccc(CC(=O)O)cc3)o2)c1", "pEC50", 5.74),
    ("COc1cccc(-c2nc(C)c(COc3ccc(CCC(=O)O)cc3)o2)c1", "pEC50", 5.85),
]

[a] COc1ccccc1-c1nc(C)c(COc2ccc(CCC(=O)O)cc2)o1
[b] COc1cccc(-c2nc(C)c(COc3ccc(C(=O)O)cc3)o2)c1
Task for the reader: decide whether a or b has the larger pEC50. Could you answer with the label of the item you picked? b
(b: 5.59, a: 5.34)

###

Tested on: HEK-293T
method.description: Cytotoxicity against HEK293T cells assessed as decrease in cell viability at 100 uM after 18 hrs by Cell Titer-Glo based luminescence assay relative to control
condition.context: human
measured.parameter: Activity (%)
The reply should contain only the number, in %.

Solved entries (count: 8):
# mol.smiles, measurement.unit, reported.measurement
measured = [
    ("COC(=O)c1cccc(OCc2oc(-c3cccc(OC)c3)nc2C)c1", "%", 59.3),
    ("COC(=O)Cc1ccc(OCc2oc(-c3cccc(OC)c3)nc2C)cc1", "%", 63.4),
    ("COC(=O)CCc1ccc(OCc2oc(-c3ccccc3OC)nc2C)cc1", "%", 79.9),
    ("COc1ccccc1-c1nc(C)c(COc2ccc(CCC(=O)O)cc2)o1", "%", 2.1),
    ("COC(=O)c1ccccc1OCc1oc(-c2ccccc2OC)nc1C", "%", 54.1),
    ("COC(=O)CCc1ccc(OCc2oc(-c3cccc(OC)c3)nc2C)cc1", "%", 67.6),
    ("COc1cccc(-c2nc(C)c(COc3ccc(CCC(=O)O)cc3)o2)c1", "%", 41.2),
    ("COC(=O)c1ccccc1OCc1oc(-c2cccc(OC)c2)nc1C", "%", 94.6),
]

Query "COC(=O)c1cccc(OCc2oc(-c3ccccc3OC)nc2C)c1" on HEK-293T; Activity returned: 39.5

Query "COc1ccccc1-c1nc(C)c(COc2ccccc2C(=O)O)o1" on HEK-293T; Activity returned: 4.1

Query "COc1cccc(-c2nc(C)c(COc3cccc(C(=O)O)c3)o2)c1" on HEK-293T; Activity returned: 23.9

###

Reported Activity is given for each of the following compounds.
System: HEK-293T
method.description: Cytotoxicity against HEK293T cells assessed as decrease in cell viability at 100 uM after 18 hrs by Cell Titer-Glo based luminescence assay relative to control
condition.context: human
The reply should contain only the number, in %.

Solved entries (count: 3):
# mol.smiles, reported.measurement
records = [
    ("COC(=O)c1ccc(OCc2oc(-c3ccccc3OC)nc2C)cc1", 81.5),
    ("COC(=O)c1ccc(OCc2oc(-c3cccc(OC)c3)nc2C)cc1", 35.6),
    ("COc1cccc(-c2nc(C)c(COc3ccccc3C(=O)O)o2)c1", 37.3),
]

Query "COc1cccc(-c2nc(C)c(COc3ccc(C(=O)O)cc3)o2)c1" on HEK-293T; Activity returned: 27.2

Query "COC(=O)Cc1ccc(OCc2oc(-c3ccccc3OC)nc2C)cc1" on HEK-293T; Activity returned: 31.2

Query "COc1cccc(-c2nc(C)c(COc3ccc(CC(=O)O)cc3)o2)c1" on HEK-293T; Activity returned: 34.5

###

study.target: Estrogen receptor beta (Homo sapiens, UniProt Q92731)
Sequence (Q92731 whole entry, the tested form may be a part): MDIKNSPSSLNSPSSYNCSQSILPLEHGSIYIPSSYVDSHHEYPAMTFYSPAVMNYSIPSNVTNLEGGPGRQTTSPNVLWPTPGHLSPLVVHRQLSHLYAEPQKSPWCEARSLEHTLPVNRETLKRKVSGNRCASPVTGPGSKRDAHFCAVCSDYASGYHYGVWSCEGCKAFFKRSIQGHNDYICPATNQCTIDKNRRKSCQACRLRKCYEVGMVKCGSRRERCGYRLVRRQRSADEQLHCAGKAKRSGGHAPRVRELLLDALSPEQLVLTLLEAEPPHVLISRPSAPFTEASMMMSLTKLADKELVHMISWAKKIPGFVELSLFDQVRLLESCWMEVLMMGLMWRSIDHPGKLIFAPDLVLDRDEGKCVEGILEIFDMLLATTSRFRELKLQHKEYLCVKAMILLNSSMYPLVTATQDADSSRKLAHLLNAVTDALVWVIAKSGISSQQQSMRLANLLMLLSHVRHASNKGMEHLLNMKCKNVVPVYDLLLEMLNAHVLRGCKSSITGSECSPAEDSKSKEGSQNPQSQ
method.description: Antagonist activity at CMV-fused ERbeta-LBD-GAL4-DBD (unknown origin) expressed in HEK293T cells assessed as inhibition of estradiol-induced receptor transactivation after 16 hrs by bright-Glo luciferase reporter gene assay
measured.parameter: IC50 (µM)

# mol.smiles, measurement.unit, IC50
rows = [
    ("COC(=O)Cc1ccc(OCc2oc(-c3cccc(OC)c3)nc2C)cc1", "µM", 7.4),
]

[P] COC(=O)c1ccc(OCc2oc(-c3cccc(OC)c3)nc2C)cc1
[Q] COC(=O)c1cccc(OCc2oc(-c3ccccc3OC)nc2C)c1
[R] COC(=O)Cc1ccc(OCc2oc(-c3ccccc3OC)nc2C)cc1
# sort list by recorded IC50, greatest to least Returns: the labels arranged in the requested order. Q, R, P

###

study.target: Vitamin D3 receptor (Homo sapiens)
method.description: Antagonist activity at CMV-fused VDR (unknown origin) expressed in HEK293T cells assessed as reduction in 24-hydroxylase promoter mediated transcriptional activity by luciferase reporter gene assay
Format: cell-based
condition.context: read-out: IC50
measured.parameter: IC50 (µM)

# mol.smiles, IC50 [µM]
records = [
    ("COC(=O)Cc1ccc(OCc2oc(-c3ccccc3OC)nc2C)cc1", 3.82),
]

[I] COc1cccc(-c2nc(C)c(COc3ccc(CCC(=O)O)cc3)o2)c1
[II] COC(=O)c1cccc(OCc2oc(-c3cccc(OC)c3)nc2C)c1
Param metric = IC50; output whichever of I , II has the minimum value. Could you answer with the label of the item you picked? I
(I: 3.35 µM, II: 5.56 µM)

###

study.target: Peroxisome proliferator-activated receptor gamma (Homo sapiens)
Sequence (P37231 whole entry, the tested form may be a part): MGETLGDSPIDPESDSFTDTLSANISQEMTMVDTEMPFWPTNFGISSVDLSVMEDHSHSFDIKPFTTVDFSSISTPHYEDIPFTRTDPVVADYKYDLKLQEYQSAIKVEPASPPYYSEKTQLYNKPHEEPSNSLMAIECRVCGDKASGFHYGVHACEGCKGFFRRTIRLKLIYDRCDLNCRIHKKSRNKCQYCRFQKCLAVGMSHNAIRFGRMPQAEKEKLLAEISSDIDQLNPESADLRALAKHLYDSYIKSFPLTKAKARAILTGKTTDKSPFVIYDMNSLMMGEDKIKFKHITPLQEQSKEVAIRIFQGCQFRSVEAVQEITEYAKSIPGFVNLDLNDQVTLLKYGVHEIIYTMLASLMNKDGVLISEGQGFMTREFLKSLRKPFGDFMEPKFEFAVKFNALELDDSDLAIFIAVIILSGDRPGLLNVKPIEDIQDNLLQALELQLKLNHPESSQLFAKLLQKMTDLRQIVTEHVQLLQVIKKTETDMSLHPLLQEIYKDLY
method.description: Antagonist activity at CMV-fused PPARgamma-LBD-GAL4-DBD (unknown origin) expressed in HEK293T cells assessed as inhibition of rosiglitazone-induced receptor transactivation after 16 hrs by bright-Glo luciferase reporter gene assay
pIC50: −log10 of the molar value.
measured.parameter: pIC50

# mol.smiles, study.target, pIC50
rows = [
    ("COC(=O)c1cccc(OCc2oc(-c3ccccc3OC)nc2C)c1", "Peroxisome proliferator-activated receptor gamma (Homo sapiens)", 5.12),
    ("COC(=O)Cc1ccc(OCc2oc(-c3ccccc3OC)nc2C)cc1", "Peroxisome proliferator-activated receptor gamma (Homo sapiens)", 5.20),
    ("COC(=O)Cc1ccc(OCc2oc(-c3cccc(OC)c3)nc2C)cc1", "Peroxisome proliferator-activated receptor gamma (Homo sapiens)", 5.17),
    ("COC(=O)c1ccc(OCc2oc(-c3cccc(OC)c3)nc2C)cc1", "Peroxisome proliferator-activated receptor gamma (Homo sapiens)", 5.12),
]
